- Test system: HCT-15 colon
- method-notes: NCI-60 one-dose screen, 48 h (100 = growth as untreated, 0 = no growth, -100 = all killed)
- measurement-parameters: 10 µM unless noted
- Procedure: Growth inhibition of the HCT-15 human tumor cell line is measured as a screen for anti-cancer activity. Cells are grown in 96 well plates and exposed to the test compound for 48 hours. Compounds are tested at a single concentration, which is 10^-5 M for most compounds. The reported endpoint is percent growth (GI% or GIPRCNT), where numbers from 0 - 100% represent growth inhibition, and numbers from -100% - 0 represent cell death. For example, a value of 40 represents 60% growth inhibition. […]
About 83,000 compounds went through this panel and 20% of them were active in at least one assay; those are over-represented in the sample as a whole.
Listing of entries alongside the reported growth.
Supply the numeric figure in %, leaving out any unit text.

Query: Notebook: pull reported growth for HCT-15 colon, entry CCn1c(Cc2ccccc2Nc2c(Cl)cccc2Cl)nnc1SCC(=O)NN1C(=O)/C(=C/c2cccc(OC)c2OC)SC1=S
Reply: 99.8

Query: Notebook: pull reported growth for HCT-15 colon, entry CCCCCCCCCCOC(=O)c1ccccc1C(=O)OCCCC
Reply: 111

Query: Notebook: pull reported growth for HCT-15 colon, entry C[C@@H](C(=O)NCCCC#Cc1cnc(Nc2ccc(C#N)cc2)nc1NC1CC1)N(C)C(=O)/C=C/CN(C)C
Reply: 29.9

Query: Notebook: pull reported growth for HCT-15 colon, entry COc1ccc(-n2c(C(O)c3ccccc3)nn(CN3CCOCC3)c2=S)cc1 (stereo not drawn)
Reply: 113

----------
- Tested on: MCF7 breast
- method-notes: NCI-60 one-dose screen, 48 h
- measurement-parameters: 10 µM
This is part of a sample that, as a whole, favours compounds with a hit. Of some 83,000 tested, about 20% had one in any assay. Active and inactive are the calls of the source. The calls were made as follows: active = growth percent below 10; inactive = the rest.
Choose one outcome from this list and give only that: active, inactive

Query: Field: outcome | Entry: COc1ccccc1C(=O)/C=C/c1ccccc1
Reply: inactive

***
Query: Field: outcome | Entry: O=C(c1ccccc1)N(C(=S)NCCc1ccc(Cl)cc1)c1ccc(Cl)cc1
Reply: inactive

Query: Field: outcome | Entry: CC(=S)NC(=O)C(=O)/C=C1/NC(=O)C(=O)S1
Reply: inactive

Query: Field: outcome | Entry: O=c1oc2ccc(I)cc2c(=O)n1-c1ccc(Br)cc1F
Reply: active

Query: Field: outcome | Entry: O=c1c2cc(F)cc(Cl)c2sc2c(Cl)nc3ccccc3c12
Reply: inactive

----------
- Tested on: SF-539 CNS
- method-notes: NCI-60 one-dose screen, 48 h
- measurement-parameters: 10 µM unless noted
Compounds without any hit were thinned out: in the full panel of roughly 83,000, 20% have a hit. Active and inactive are the calls of the source. How the source made its calls: active means growth percent below 10; inactive means the rest.
Choose one outcome from this list and give only that: Y for active, N for inactive

Below, 2 molecules whose answers are already recorded.
Query: Field: outcome | Entry: Nc1ccn(C2O[C@H](CO)[C@@H](O)[C@H]2O)c(=O)n1 (some centres undefined)
Reply: N

Query: Field: outcome | Entry: CCCCc1ccc(NS(=O)(=O)c2cc3c4c(c2)CCN4C(=O)CC3)cc1
Reply: Y

***
Query: Field: outcome | Entry: COC(=O)[C@@H]1CCCN1C(=O)[C@H]1CCCN1C(=O)[C@@H](Cc1c[nH]c2ccccc12)NC(=S)Nc1cc(C(F)(F)F)cc(C(F)(F)F)c1
Reply: N

Query: Field: outcome | Entry: O=C(Nc1ccc(N2CCNCC2)cn1)c1[nH]ncc1Nc1ncnc2sc3c(c12)CCC3
Reply: Y

Query: Field: outcome | Entry: CN(C)/C=C1\SC(=Nc2ccc(Cl)cc2)NC1=O
Reply: N

----------
Listing of entries alongside the reported growth.
- System: OVCAR-4 ovarian
- method-notes: NCI-60 one-dose screen, 48 h (100 = growth as untreated, 0 = no growth, -100 = all killed)
- measurement-parameters: 10 µM unless noted
This is part of a sample that, as a whole, favours compounds with a hit. Of some 83,000 tested, about 20% had one in any assay.
Supply the numeric figure in %, leaving out any unit text.

See these solved cases before continuing.
Query: Notebook: pull reported growth for OVCAR-4 ovarian, entry Cn1c(=O)n(C)c2cc(CNCCNc3ccnc4cc(Cl)ccc34)ccc21
Reply: 81.5

Query: Notebook: pull reported growth for OVCAR-4 ovarian, entry COc1cc(/C=C2\CN(C)C/C(=C\c3cc(CN4CCCCC4)c(O)c(OC)c3)C2=O)cc(CN2CCCCC2)c1O
Reply: 38.6

***
Query: Notebook: pull reported growth for OVCAR-4 ovarian, entry CCN(CCO)CCNc1ccc(C)c2sc3cc(Cl)ccc3c(=O)c12
Reply: 70.8

Query: Notebook: pull reported growth for OVCAR-4 ovarian, entry Nc1ccn(C2O[C@H](CO)[C@@H](O)[C@H]2O)c(=O)n1 (stereo partly specified)
Reply: 72.3

Query: Notebook: pull reported growth for OVCAR-4 ovarian, entry CCN1C(=O)N(c2ccccc2)C2NN=c3s/c(=C4\C(=O)N(C(C)C)c5ccccc54)c(=O)n3C21 (stereo unspecified)
Reply: 45.8

Query: Notebook: pull reported growth for OVCAR-4 ovarian, entry CCCC(=O)CC(C)=O.CCCC(=O)CC(C)=O.[Cu]
Reply: 113

----------
- Tested on: SK-OV-3 ovarian
- method-notes: NCI-60 one-dose screen, 48 h (100 = growth as untreated, 0 = no growth, -100 = all killed)
- measurement-parameters: 10 µM unless noted
This is part of a sample that, as a whole, favours compounds with a hit. Of some 83,000 tested, about 20% had one in any assay.
value-type: growth (%)
Supply the numeric figure in %, leaving out any unit text.

Query: Given the entry CCOC(=O)c1ccc(N=Cc2sc(=O)[nH]c2O)cc1 , report its measured growth.
Reply: 91.6

***
Query: Given the entry O=c1c2cc(F)ccc2sc2c(NCCCNCCO)nc3ccc(Cl)cc3c12 , report its measured growth.
Reply: 87.7

Query: Given the entry COc1nc2c(c(=O)n1C)N=C1c3ccccc3C(=O)C1C(c1ccccc1)N2 (stereo not drawn) , report its measured growth.
Reply: 91.4

----------
- System: KM12 colon
- method-notes: NCI-60 one-dose screen, 48 h (100 = growth as untreated, 0 = no growth, -100 = all killed)
- measurement-parameters: 10 µM unless noted
The panel holds about 83,000 compounds, 20% with a hit somewhere; the sample as a whole holds those more often.
Labelling: growth reported below 40% becomes True; at or above becomes False.

Below, 4 molecules whose answers are already recorded.
Query: Threshold test, growth < 40%: COc1ccc(-c2nsc3c2NC(=O)CC3c2cccc(OC)c2)cc1 (stereo not given)
Reply: True

Query: Threshold test, growth < 40%: COC(=O)/C(=C\c1c(C)[nH]c2ccccc12)S(=O)(=O)c1ccccc1
Reply: True

Query: Threshold test, growth < 40%: CC(=O)c1ccc2oc(=O)n(Cc3ccc(C#N)cc3)c(=O)c2c1
Reply: False

Query: Threshold test, growth < 40%: CCC1=C[C@]2(C3CC(=O)N(c4ccccc4)C3=O)CC(C(C)(C)C)C[C@@H]2[C@@H]2C(=O)N(c3ccccc3)C(=O)[C@H]12 (stereo not given in full)
Reply: False

--- query ---
Query: Threshold test, growth < 40%: C=C(C)CCC(C)N1CCC(N2CCC(C(=O)NCCc3ccccc3)CC2)CC1 (stereo not given)
Reply: True

----------
- Tested on: SR leukemia
- method-notes: NCI-60 one-dose screen, 48 h
- measurement-parameters: 10 µM unless noted
About 83,000 compounds went through this panel and 20% of them were active in at least one assay; those are over-represented in the sample as a whole. Activity calls are given as the source filed them. The calls were made as follows: active = growth percent below 10; inactive = the rest.
Choose one outcome from this list and give only that: Y = active, N = inactive

Query: Field: outcome | Entry: CC1=C(CC(=O)c2cccc([N+](=O)[O-])c2)C(=O)c2ccccc2C1=O
Reply: Y

Query: Field: outcome | Entry: O=C1/C(=C/c2cccc(O)c2)COc2ccc(O)cc21
Reply: N

Query: Field: outcome | Entry: COc1ccc(C2C3=C(COC3=O)N(CCO)c3cc4c(cc32)CCC4)cc1 (stereo unspecified)
Reply: N

Query: Field: outcome | Entry: OC(CNC1CCCCC1)Cn1c2ccc(I)cc2c2cc(I)ccc21 (stereo unspecified)
Reply: N

Query: Field: outcome | Entry: COC(=O)[C@H]1CCCN1C(=O)[C@H]1CCCN1C(=O)[C@H](Cc1c[nH]c2ccccc12)NC(=S)Nc1cc(C(F)(F)F)cc(C(F)(F)F)c1
Reply: Y

***
Query: Field: outcome | Entry: Oc1[nH]c2ccccc2c1N=Nc1nnc2n1N=C(c1ccccc1)CS2
Reply: N

Query: Field: outcome | Entry: CNCCNc1nc2ccccc2c2c(=O)c3cccc(C)c3sc12
Reply: Y

Query: Field: outcome | Entry: Cc1ccc(N=NC2C(=O)N(c3ccc(Cl)cc3)N(c3ccc(Cl)cc3)C2=O)cc1
Reply: N

Query: Field: outcome | Entry: O=C1OC(c2ccccc2)(c2ccccc2)c2ccsc21
Reply: N

Query: Field: outcome | Entry: COc1ccccc1N1C(=N)S/C(=C\c2ccc(OCc3ccccc3F)cc2)C1=O
Reply: N

Query: Field: outcome | Entry: FC(F)(F)c1cccc(Nc2nc(-c3ccccc3)nc3ncccc23)c1
Reply: Y
